- Tested on: wheat (Triticum aestivum)
- Protocol description: Test B pre-/postemergence plant response
- Format: in vivo
- Reported conditions: Postemergence, 31 g ai/ha; 0 to 100 scale (0 no effect, 100 complete control)
Outcome measure: Plant response rating, Wheat
Answer with a bare number; do not write a unit.

Qu. Could you please provide reported Plant response rating, Wheat for Fc1cccc(Oc2ncc(Cl)cn2)c1-c1cc(C(F)(F)F)no1 [Compound 228] ? Thanks!
Ans. 0

Qu. Could you please provide reported Plant response rating, Wheat for Cc1cc(-c2c(F)cccc2Oc2ncc(Br)cn2)on1 [Compound 230] ? Thanks!
Ans. 0

Qu. Could you please provide reported Plant response rating, Wheat for FCc1cc(-c2ccccc2Oc2ncc(Cl)cn2)on1 [Compound 224] ? Thanks!
Ans. 0

Qu. Could you please provide reported Plant response rating, Wheat for Clc1cnc(Oc2ccccc2-c2cnccn2)nc1 [Compound 163] ? Thanks!
Ans. 0

Qu. Could you please provide reported Plant response rating, Wheat for Cc1csc(-c2ccccc2Oc2ncc(Cl)cn2)c1 [Compound 216] ? Thanks!
Ans. 0

* * *

- System: yellow nutsedge (Cyperus esculentus)
- Protocol description: Test D pre-/postemergence plant response
- Type: in vivo
- Reported conditions: Postemergence, 16 g ai/ha
Outcome measure: Plant response rating (scale 0 to 100), Nutsedge, Yellow
Answer with a bare number; do not write a unit.

Qu. Could you please provide reported Plant response rating (scale 0 to 100), Nutsedge, Yellow for `N#Cc1cccc(Oc2ncc(Cl)cn2)c1-c1cc(C(F)F)on1` ? Thanks!
Ans. 0

Qu. Could you please provide reported Plant response rating (scale 0 to 100), Nutsedge, Yellow for `CC(F)(F)c1cc(-c2ccccc2Oc2ncc(Cl)cn2)no1` ? Thanks!
Ans. 5

Qu. Could you please provide reported Plant response rating (scale 0 to 100), Nutsedge, Yellow for `Clc1cnc(Oc2ccccc2-c2cc(Cl)sn2)nc1` ? Thanks!
Ans. 0

Qu. Could you please provide reported Plant response rating (scale 0 to 100), Nutsedge, Yellow for `FCc1cc(-c2ccccc2Oc2ncc(Cl)cn2)on1` ? Thanks!
Ans. 0

Qu. Could you please provide reported Plant response rating (scale 0 to 100), Nutsedge, Yellow for `FCc1cc(-c2c(Br)cccc2Oc2ncc(Cl)cn2)no1` ? Thanks!
Ans. 0

* * *

- Test system: giant foxtail (Setaria faberii)
- Protocol description: Test B pre-/postemergence plant response
- Type: in vivo
- Reported conditions: Postemergence, 1000 g ai/ha; 0 to 100 scale (0 no effect, 100 complete control)
Answer NOT MET if Plant response rating, Foxtail, Giant is under 20, and MET if it is 20 or more.

Qu. Quick check: does `Clc1cnc(Oc2ccccc2-c2ncns2)nc1` have Plant response rating, Foxtail, Giant greater than or equal to 20?
Ans. NOT MET

Qu. Quick check: does `Cn1ccc(-c2ccccc2Oc2ncc(Cl)cn2)n1` have Plant response rating, Foxtail, Giant greater than or equal to 20?
Ans. NOT MET

Qu. Quick check: does `Clc1cnc(Oc2ccccc2-c2cc(Cl)sn2)nc1` have Plant response rating, Foxtail, Giant greater than or equal to 20?
Ans. MET

Qu. Quick check: does `Fc1cnc(Oc2ccccc2-c2cc(Cl)sn2)nc1` have Plant response rating, Foxtail, Giant greater than or equal to 20?
Ans. MET

Qu. Quick check: does `FCc1cc(-c2c(F)cccc2Oc2ncc(Cl)cn2)no1` have Plant response rating, Foxtail, Giant greater than or equal to 20?
Ans. MET

Qu. Quick check: does `Clc1cnc(Oc2ccccc2-c2ncco2)nc1` have Plant response rating, Foxtail, Giant greater than or equal to 20?
Ans. NOT MET

* * *

Assign Plant response rating, Barnyardgrass to each entry below.
- Tested on: barnyardgrass (Echinochloa crus-galli)
- Protocol description: Test B pre-/postemergence plant response
- Type: in vivo
- Reported conditions: Preemergence, 1000 g ai/ha; 0 to 100 scale (0 no effect, 100 complete control)

Qu. Could you please provide reported Plant response rating, Barnyardgrass for `O=Cc1cc(-c2c(Br)cccc2Oc2ncc(Cl)cn2)no1` ? Thanks!
Ans. 40

Qu. Could you please provide reported Plant response rating, Barnyardgrass for `Clc1cnc(Oc2ccccc2-c2ccc(Cl)nn2)nc1` ? Thanks!
Ans. 20

Qu. Could you please provide reported Plant response rating, Barnyardgrass for `Fc1cccc(Oc2ncc(Cl)cn2)c1-c1cccc(OC(F)(F)F)c1` ? Thanks!
Ans. 80

Qu. Could you please provide reported Plant response rating, Barnyardgrass for `Clc1cnc(Oc2ccccc2-c2ncco2)nc1` ? Thanks!
Ans. 20

Qu. Could you please provide reported Plant response rating, Barnyardgrass for `Clc1cnc(Oc2ccccc2-c2ncc(Cl)cn2)nc1` ? Thanks!
Ans. 60

* * *

Assign Plant response rating, Wheat to each entry below.
- Tested on: wheat (Triticum aestivum)
- Protocol description: Test B pre-/postemergence plant response
- Type: in vivo
- Reported conditions: Postemergence, 500 g ai/ha; 0 to 100 scale (0 no effect, 100 complete control)

Qu. Could you please provide reported Plant response rating, Wheat for Cc1cc(-c2ccccc2Oc2ncc(Cl)cn2)no1 [Compound 60] ? Thanks!
Ans. 90

Qu. Could you please provide reported Plant response rating, Wheat for FC(F)(F)c1csc(-c2ccccc2Oc2ncc(Cl)cn2)n1 [Compound 137] ? Thanks!
Ans. 0

Qu. Could you please provide reported Plant response rating, Wheat for Cn1nnc(-c2ccccc2Oc2ncc(Br)cn2)n1 [Compound 50] ? Thanks!
Ans. 20

Qu. Could you please provide reported Plant response rating, Wheat for Cc1cc(-c2ccccc2Oc2ncc(Cl)cn2)on1 [Compound 58] ? Thanks!
Ans. 50

Qu. Could you please provide reported Plant response rating, Wheat for Cc1c(-c2ccccc2Oc2ncc(Cl)cn2)noc1C(F)(F)F [Compound 167] ? Thanks!
Ans. 20

Qu. Could you please provide reported Plant response rating, Wheat for Cn1nncc1-c1ccccc1Oc1ncc(Cl)cn1 [Compound 52] ? Thanks!
Ans. 20

Qu. Could you please provide reported Plant response rating, Wheat for Clc1cnc(Oc2ccccc2-c2cc(Cl)ncn2)nc1 [Compound 190] ? Thanks!
Ans. 0

Qu. Could you please provide reported Plant response rating, Wheat for FC(F)(F)Cn1cnc(-c2ccccc2Oc2ncc(Cl)cn2)c1 [Compound 161] ? Thanks!
Ans. 0

Qu. Could you please provide reported Plant response rating, Wheat for Cc1noc(C)c1-c1c(C#N)cccc1Oc1ncc(Cl)cn1 [Compound 134] ? Thanks!
Ans. 30

Qu. Could you please provide reported Plant response rating, Wheat for Cn1nc(C(F)(F)F)cc1-c1c(C#N)cccc1Oc1ncc(Cl)cn1 [Compound 136] ? Thanks!
Ans. 40

* * *

Assign Plant response rating, Ragweed to each entry below.
- Test system: ragweed (common ragweed, Ambrosia elatior)
- Protocol description: Test B pre-/postemergence plant response
- Type: in vivo
- Reported conditions: 125 g ai/ha, postemergence; 0 to 100 scale, 0 no effect, 100 complete control
Answer with a bare number; do not write a unit.

Qu. Could you please provide reported Plant response rating, Ragweed for Clc1cnc(Oc2ccccc2-c2ccon2)nc1 [Compound 185] ? Thanks!
Ans. 70

Qu. Could you please provide reported Plant response rating, Ragweed for Clc1cnc(Oc2ccccc2-c2cc(Cl)ncn2)nc1 [Compound 190] ? Thanks!
Ans. 10

Qu. Could you please provide reported Plant response rating, Ragweed for CCOC(=O)c1cc(-c2ccccc2Oc2ncc(Cl)cn2)on1 [Compound 225] ? Thanks!
Ans. 0

Qu. Could you please provide reported Plant response rating, Ragweed for Cn1nncc1-c1ccccc1Oc1ncc(Cl)cn1 [Compound 52] ? Thanks!
Ans. 20

Qu. Could you please provide reported Plant response rating, Ragweed for Fc1cc(F)c(-c2cc(C(F)F)no2)c(Oc2ncc(Cl)cn2)c1 [Compound 107] ? Thanks!
Ans. 0

Qu. Could you please provide reported Plant response rating, Ragweed for Cn1nnc(-c2ccccc2Oc2ncc(Cl)cn2)n1 [Compound 48] ? Thanks!
Ans. 50

Qu. Could you please provide reported Plant response rating, Ragweed for Clc1cnc(Oc2ccccc2-c2ccc(Br)s2)nc1 [Compound 181] ? Thanks!
Ans. 10

Qu. Could you please provide reported Plant response rating, Ragweed for FC(F)(F)c1cc(-c2c(Cl)cccc2Oc2ncc(Cl)cn2)on1 [Compound 126] ? Thanks!
Ans. 40

Qu. Could you please provide reported Plant response rating, Ragweed for CC(=O)c1cc(-c2ccccc2Oc2ncc(Cl)cn2)no1 [Compound 215] ? Thanks!
Ans. 0

Qu. Could you please provide reported Plant response rating, Ragweed for FC(F)c1cc(-c2c(Cl)cccc2Oc2ncc(Br)cn2)on1 [Compound 121] ? Thanks!
Ans. 60

Qu. Could you please provide reported Plant response rating, Ragweed for FC(F)(F)c1ccc(-c2c(Cl)cccc2Oc2ncc(Cl)cn2)nc1 [Compound 160] ? Thanks!
Ans. 0

Qu. Could you please provide reported Plant response rating, Ragweed for CC(=O)c1cc(-c2ccccc2Oc2ncc(Cl)cn2)on1 [Compound 218] ? Thanks!
Ans. 0

Qu. Could you please provide reported Plant response rating, Ragweed for N#Cc1cccc(Oc2ncc(Cl)cn2)c1-c1cc(C(F)(F)F)ccn1 [Compound 158] ? Thanks!
Ans. 0

Qu. Could you please provide reported Plant response rating, Ragweed for COc1cccc(Oc2ncc(Cl)cn2)c1-c1cc(C)no1 [Compound 110] ? Thanks!
Ans. 40

Qu. Could you please provide reported Plant response rating, Ragweed for Clc1cnc(Oc2ccccc2-c2ccno2)nc1 [Compound 154] ? Thanks!
Ans. 0

Qu. Could you please provide reported Plant response rating, Ragweed for FCc1cc(-c2ccccc2Oc2ncc(Cl)cn2)on1 [Compound 224] ? Thanks!
Ans. 100

Qu. Could you please provide reported Plant response rating, Ragweed for COc1ccnc(-c2ccccc2Oc2ncc(Cl)cn2)c1 [Compound 219] ? Thanks!
Ans. 30

Qu. Could you please provide reported Plant response rating, Ragweed for FC(F)c1cc(-c2ccccc2Oc2ncc(Cl)cn2)co1 [Compound 141] ? Thanks!
Ans. 0
